Origin of measurements: PubChem BioAssay (Tox21)

- measured-on: Cytochrome P450 2C9 (Homo sapiens) (UniProt P11712)
- Sequence (P11712 whole entry, looked up): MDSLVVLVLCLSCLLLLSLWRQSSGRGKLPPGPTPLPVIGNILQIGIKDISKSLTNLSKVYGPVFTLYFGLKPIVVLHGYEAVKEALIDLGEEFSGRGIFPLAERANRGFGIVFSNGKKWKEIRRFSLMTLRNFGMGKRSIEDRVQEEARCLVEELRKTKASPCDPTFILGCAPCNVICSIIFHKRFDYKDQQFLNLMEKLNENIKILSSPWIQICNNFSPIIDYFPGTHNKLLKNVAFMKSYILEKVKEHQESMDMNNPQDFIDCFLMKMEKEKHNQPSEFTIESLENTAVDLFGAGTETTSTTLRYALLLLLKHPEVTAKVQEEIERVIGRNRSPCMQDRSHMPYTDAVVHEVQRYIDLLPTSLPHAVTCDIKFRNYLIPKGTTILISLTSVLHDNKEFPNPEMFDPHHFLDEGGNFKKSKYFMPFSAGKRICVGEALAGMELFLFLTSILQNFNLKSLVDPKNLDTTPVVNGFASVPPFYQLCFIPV
- procedure-details: Cytochrome P450 Family 2 Subfamily C Member 9 (CYP2C9) small molecule antagonists: luciferase reporter qHTS assay (AID 1671198); further: nearly all actives have a fitted effect of over 50% in size; further: potency means the concentration at half of the fitted maximal effect
- condition-set: P450-Glo CYP2C9 enzyme assay, luciferin luminescence; series mostly up to 115 µM
Results filed as inconclusive are left out. Calls of active or inactive are those of the source. The call rests on the fitted dose curve; in most records, active means well fitted inhibition curve with a large enough effect in the repeat runs; inconclusive means weak or mixed curves; inactive means no such curve, though single readings can be large or run the other way.

compound	Potency
O=C(O)CNC(=O)c1ccccc1I	inactive
CC(C)(O)CCc1ccccc1	inactive
O=P(O)(O)Oc1ccccc1	inactive
NC(=O)c1ccccc1[N+](=O)[O-]	inactive
CCN(CC)CC(=O)Nc1c(C)cccc1C(=O)OC	inactive
CCc1ccc(C)cc1	inactive
Cc1ccccc1S(N)(=O)=O	inactive
Oc1cccc2[nH]ccc12	15.5 µM (active)
CCCCCCCCCCCC(=O)OCC(O)CO (stereo not drawn)	39.9 µM (active)
CN(C)CC/C=C1\c2ccccc2Sc2ccc(Cl)cc21	inactive
ClC1=C(Cl)C1(Cl)Cl	inactive
COC(=O)C1=C(C)NC(C)=C(C(=O)OC(C)(C)CN(C)CCC(c2ccccc2)c2ccccc2)C1c1cccc([N+](=O)[O-])c1 (stereo not drawn)	2.45 µM (active)
Cc1cc(CCCOc2c(C)cc(-c3noc(C(F)(F)F)n3)cc2C)on1	8.71 µM (active)
CCOC(=O)c1c(N)sc2c1CCN(Cc1ccccc1)C2	3.47 µM (active)
CCOc1ncc(F)c(=O)[nH]1	inactive
COc1ccc(/C=C/C(=O)c2ccc(OC)cc2OC)cc1	6.92 µM (active)
CSCC[C@H](NC(=O)[C@H](Cc1c[nH]c2ccccc12)NC(=O)CCNC(=O)OC(C)(C)C)C(=O)N[C@@H](CC(=O)O)C(=O)N[C@@H](Cc1ccccc1)C(N)=O	inactive
CO[C@@H]1[C@@H](OC)[C@H](C)[C@@](O)(CC(=O)O)O[C@H]1[C@H](C)[C@H]1O[C@@]2(CC[C@@](C)([C@H]3CC[C@@](C)([C@@H]4O[C@@H]([C@H]5O[C@](C)(O)[C@H](C)C[C@@H]5C)C[C@@H]4OC4C[C@H](OC)[C@@H](OC)[C@H](C)O4)O3)O2)C[C@H](O)[C@H]1C (stereo partly drawn)	inactive
CCOCCC(=O)OCC	inactive
Nc1cccc2c(N)cccc12	9.2 µM (active)
CCN(CC)CCOc1ccccc1C(=O)CCc1ccccc1	inactive
COc1ccc(-c2cc(C(F)F)nn2-c2ccc(S(N)(=O)=O)cc2)cc1F	8.71 µM (active)
COc1ccc(-n2nc(C(F)F)cc2-c2ccc(S(C)=O)cc2)cc1 (stereo not drawn)	31.7 µM (active)

====

- measured-on: Cytochrome P450 2C9 (Homo sapiens)
- procedure-details: Cytochrome P450 Family 2 Subfamily C Member 9 (CYP2C9) small molecule antagonists: luciferase reporter qHTS assay (AID 1671198); further: nearly all actives have a fitted effect of over 50% in size; further: potency means the concentration at half of the fitted maximal effect
- condition-set: P450-Glo CYP2C9 enzyme assay, luciferin luminescence; series mostly up to 115 µM
- From the text: U.S. Tox21 Program National Center for Advancing Translational Sciences [NCATS] U.S. Environmental Protection Agency [EPA] National Institutes of Environmental Health Sciences [NIEHS] National Toxicology Program [NTP] U.S. Food and Drug Administration [FDA] […] The luciferin products formed are detected with a luciferin detection reagent, and the amount of light produced is proportional to CYP activity. […]
Records with an inconclusive call do not appear. Activity calls are given as the source filed them. Calls come from the whole dose curve; as a rule, active = well fitted inhibition curve with a large enough effect in the repeat runs; inconclusive = weak or mixed curves; inactive = no such curve, though single readings can be large or run the other way.

compound	measured-on	Potency
O=C1NC(=O)c2cccc3cccc1c23	Cytochrome P450 2C9 (Homo sapiens)	inactive
CC(C)COC(=O)COc1cc(Cl)c(Cl)cc1Cl	Cytochrome P450 2C9 (Homo sapiens)	35.5 µM (active)
COC1CCC=CO1 (stereo not given)	Cytochrome P450 2C9 (Homo sapiens)	inactive
O=C(O)CCC(=O)c1ccc(-c2ccccc2)cc1	Cytochrome P450 2C9 (Homo sapiens)	inactive
CC(C)C(O)C(C)(C)CO (stereo not given)	Cytochrome P450 2C9 (Homo sapiens)	65.3 µM (active)
CC(C)c1ccc(C(=O)N=C(N)N)cc1S(C)(=O)=O	Cytochrome P450 2C9 (Homo sapiens)	inactive
Cc1ccc(Nc2c(F)cccc2Cl)c(CC(=O)O)c1	Cytochrome P450 2C9 (Homo sapiens)	17.4 µM (active)
COc1ccc(C)cc1	Cytochrome P450 2C9 (Homo sapiens)	inactive
CCCCCCC(CO)CCCC (stereo not given)	Cytochrome P450 2C9 (Homo sapiens)	inactive
O=c1[nH]c2cc(C(F)(F)F)c(N3CCOCC3)cc2n(CP(=O)(O)O)c1=O	Cytochrome P450 2C9 (Homo sapiens)	inactive
Cc1cccc2sc(N)nc12	Cytochrome P450 2C9 (Homo sapiens)	inactive
COC(C)(C)OC	Cytochrome P450 2C9 (Homo sapiens)	inactive
CC(C)OC(=O)c1ccccc1C(=O)OC(C)C	Cytochrome P450 2C9 (Homo sapiens)	39.9 µM (active)
O=C(O)CCS	Cytochrome P450 2C9 (Homo sapiens)	inactive
C=C(C)c1ccccc1	Cytochrome P450 2C9 (Homo sapiens)	inactive
